target: KIT (Homo sapiens, UniProt P10721); experiment: Caliper mobility shift kinase inhibition assay, KIT; conditions: recombinant kinase; enzyme 0.9 nM, ATP 400 μM, incubation 17 hr
Sequence (P10721 26-976): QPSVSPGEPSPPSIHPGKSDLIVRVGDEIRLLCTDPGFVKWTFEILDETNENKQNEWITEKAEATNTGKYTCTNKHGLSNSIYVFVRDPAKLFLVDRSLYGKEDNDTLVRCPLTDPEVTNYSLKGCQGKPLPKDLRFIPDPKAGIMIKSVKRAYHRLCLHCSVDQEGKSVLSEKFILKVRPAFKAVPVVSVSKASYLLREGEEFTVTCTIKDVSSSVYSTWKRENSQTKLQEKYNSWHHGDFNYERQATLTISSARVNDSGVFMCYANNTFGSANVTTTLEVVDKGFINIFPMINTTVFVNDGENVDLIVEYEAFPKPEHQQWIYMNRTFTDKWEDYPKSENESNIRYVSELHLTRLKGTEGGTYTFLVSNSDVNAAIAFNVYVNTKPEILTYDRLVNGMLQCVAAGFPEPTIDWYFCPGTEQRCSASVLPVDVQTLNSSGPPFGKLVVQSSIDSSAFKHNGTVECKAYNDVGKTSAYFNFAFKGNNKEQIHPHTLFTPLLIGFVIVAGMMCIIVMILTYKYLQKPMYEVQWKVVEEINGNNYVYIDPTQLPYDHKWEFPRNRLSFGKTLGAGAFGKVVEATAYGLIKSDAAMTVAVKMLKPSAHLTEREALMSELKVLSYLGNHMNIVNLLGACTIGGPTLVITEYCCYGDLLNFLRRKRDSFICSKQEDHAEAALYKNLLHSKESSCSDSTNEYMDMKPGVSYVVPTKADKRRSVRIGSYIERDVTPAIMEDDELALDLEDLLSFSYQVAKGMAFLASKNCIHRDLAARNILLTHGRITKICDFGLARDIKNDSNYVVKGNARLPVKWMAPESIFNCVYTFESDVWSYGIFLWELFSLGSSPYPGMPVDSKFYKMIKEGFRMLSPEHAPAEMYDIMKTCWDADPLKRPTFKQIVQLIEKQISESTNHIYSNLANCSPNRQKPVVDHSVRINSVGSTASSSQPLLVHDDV
VALUE KIND: IC50

Some molecules with recorded IC50:
Bench note: what IC50 did `Cc1cc(Nc2cc(NCCNC(=O)[C@H](C)N(C)C(=O)/C=C/CN(C)C)nc(Nc3ccc(CC#N)cc3)n2)n[nH]1` show? < 10 nM

So what's the measured IC50 for this one? `CC#CC(=O)N(C)[C@@H](C)C(=O)NCCNc1cc(Nc2cc(C3CCC3)[nH]n2)nc(Nc2ccc(CC#N)cc2)n1` 10 to 100 nM

Could you tell me which IC50 is on file for `C=CC(=O)N(C)[C@@H](C)C(=O)NCCNc1cc(Nc2ncc(-c3ccncc3)s2)nc(C)n1` ? < 10 nM

Continuing:
Need IC50, item `C=CC(=O)N(C)[C@@H](C)C(=O)NCCNc1cc(Nc2cc(C3CCC3)[nH]n2)nc(Nc2ccc(CC#N)cc2)n1` 10 to 100 nM

Which IC50 value belongs to `C=CC(=O)N(C)[C@@H](C)C(=O)NCCOc1cc(Nc2ncc(-c3ccccc3)s2)nc(C)n1` ? < 10 nM

I am curious: what IC50 value has been reported for `C=CC(=O)N(C)[C@@H](C)C(=O)NCCOc1cc(C)nc(Nc2ncc(-c3ccccc3)s2)c1` ? < 10 nM

Return reported IC50; argument: `C=CC(=O)N(C)[C@@H](C)C(=O)NCCNc1cc(Nc2ncc(-c3ccccc3)s2)nc(C)n1` < 10 nM

====

Let's look at some molecules and their measured pIC50.
molecular target: FLT3 (Homo sapiens); experiment: Caliper mobility shift kinase inhibition assay, FLT3; settings: recombinant kinase; enzyme 0.1 nM, ATP 95 μM, incubation 3 hr
Sequence (P36888 27-993): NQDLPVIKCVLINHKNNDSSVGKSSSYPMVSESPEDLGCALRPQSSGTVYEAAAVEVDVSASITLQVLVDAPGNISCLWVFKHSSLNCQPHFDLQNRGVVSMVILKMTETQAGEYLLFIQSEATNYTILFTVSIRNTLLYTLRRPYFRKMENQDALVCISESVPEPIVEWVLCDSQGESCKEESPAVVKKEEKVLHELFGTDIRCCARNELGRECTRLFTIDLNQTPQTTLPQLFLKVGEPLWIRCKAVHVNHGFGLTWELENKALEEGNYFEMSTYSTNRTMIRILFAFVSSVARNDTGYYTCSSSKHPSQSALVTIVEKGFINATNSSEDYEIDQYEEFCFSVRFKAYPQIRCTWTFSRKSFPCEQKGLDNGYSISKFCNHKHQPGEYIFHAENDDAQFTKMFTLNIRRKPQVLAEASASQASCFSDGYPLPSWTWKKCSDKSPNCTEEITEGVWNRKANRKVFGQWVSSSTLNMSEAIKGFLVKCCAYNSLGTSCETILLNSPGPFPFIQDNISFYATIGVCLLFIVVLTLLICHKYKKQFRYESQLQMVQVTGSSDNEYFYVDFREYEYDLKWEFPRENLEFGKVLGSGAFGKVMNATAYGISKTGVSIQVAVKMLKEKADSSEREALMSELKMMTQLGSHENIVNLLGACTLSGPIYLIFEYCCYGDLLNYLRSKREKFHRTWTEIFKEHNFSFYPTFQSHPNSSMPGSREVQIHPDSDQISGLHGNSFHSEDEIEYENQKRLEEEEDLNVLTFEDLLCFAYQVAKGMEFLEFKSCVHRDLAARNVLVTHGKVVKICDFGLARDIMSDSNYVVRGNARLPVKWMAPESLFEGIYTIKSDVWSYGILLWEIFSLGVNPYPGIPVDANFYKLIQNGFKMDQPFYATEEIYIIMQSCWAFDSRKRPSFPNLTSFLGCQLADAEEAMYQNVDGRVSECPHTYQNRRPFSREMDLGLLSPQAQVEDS
pIC50: −log10 of the molar value.

Solved cases below.
# query: pIC50 of entry `C=CC(=O)N1CCN(C)C[C@H]1C(=O)NCCOc1cc(Nc2ncc(-c3ccccc3)s2)nc(C)n1` > 8.00

What value of measured pIC50 is listed for `CCc1nc(NCCNC(=O)[C@H](C)N(C)C(=O)/C=C/CN(C)C)cc(Nc2ncc(C3CCC3)s2)n1` ? > 8.00

Quick one: pIC50 of `C=CC(=O)N(C)[C@@H](C)C(=O)NCCN(C)c1cc(Nc2ncc(-c3ccncc3)s2)nc(C)n1` ? > 8.00

Now for the molecule whose pIC50 we want.
What does the data say about its pIC50? Entry: `CC#CC(=O)N(C)[C@@H](C)C(=O)NCCNc1cc(Nc2ncc(-c3ccncc3)s2)nc(C)n1` > 8.00

====

tested on: THP−1
VALUE KIND: GI50

Consider the compound `C=CC(=O)N(C)[C@@H](C)C(=O)NCCNc1cc(Nc2ncc(-c3ccncc3)s2)nc(C)n1` and give its measured GI50. ≥ 1000 nM

More entries:
Report GI50 for `CC#CC(=O)N(C)[C@@H](C)C(=O)NCCNc1cc(Nc2ncc(-c3ccncc3)s2)nc(C)n1` please. ≥ 1000 nM

Requested read-out: GI50. Entry: `C=CC(=O)N(C)[C@@H](C)C(=O)NC[C@H]1CCc2c([nH]c(/C=C3\C(=O)Nc4ccc(F)cc43)c2C)C1` ≥ 1000 nM

# query: GI50 of entry `C=CC(=O)N(C)[C@@H](C)C(=O)NCCNc1cc(Nc2ncc(C3CCC3)s2)nc(CC)n1` 10 to 100 nM
